# System: Streptococcus pyogenes
# test description: Antibacterial activity against Streptococcus pyogenes after 18 to 24 hrs by serial plate dilution method
# Type: functional
quantity name: MIC
Report the figure along with its unit, number first.

Field: example entries. Status: answers known.
If you can, please state the reported MIC value of COc1ccc2nc(C)cc(-n3cc(CNC(=O)c4ccc(C)cc4)nn3)c2c1 .
0.8 µg/mL

Next compound: COc1ccc(C(=O)NCc2cn(-c3cc(C)nc4ccc(OC)cc34)nn2)cc1
0.4 µg/mL

What do you have for COc1ccc2nc(C)cc(-n3cc(CN4CCN(C(=O)c5ccccc5F)CC4)nn3)c2c1 ?
0.4 µg/mL

Param item: COc1ccc2nc(C)cc(-n3cc(CN4CCN(C(=O)C5CC5)CC4)nn3)c2c1
0.4 µg/mL

And CCc1ccc(C(=O)NCc2cn(-c3cc(C)nc4ccc(OC)cc34)nn2)cc1 ?
3.12 µg/mL

Further cases:
Report MIC for CCc1ccc(C(=O)N2CCN(Cc3cn(-c4cc(C)nc5ccc(OC)cc45)nn3)CC2)cc1 please.
6.25 µg/mL

Now consider COc1ccc2nc(C)cc(-n3cc(CN4CCN(C(=O)c5ccc(C)cc5)CC4)nn3)c2c1 and answer again.
6.25 µg/mL

And for CCc1ccc(S(=O)(=O)NCc2cn(-c3cc(C)nc4ccc(OC)cc34)nn2)cc1 ?
6.25 µg/mL

Try this compound next: COc1ccc2nc(C)cc(-n3cc(CNC(=O)C4CCC4)nn3)c2c1
0.8 µg/mL

Now the compound O=C(O)c1cn(C2CC2)c2cc(N3CCNCC3)c(F)cc2c1=O
0.4 µg/mL

Next entry: COc1ccc2nc(C)cc(-n3cc(CN4CCN(C(C)=O)CC4)nn3)c2c1
0.2 µg/mL

Another: COc1ccc2nc(C)cc(-n3cc(CNC(=O)C4CC4)nn3)c2c1
0.4 µg/mL

For COc1ccc2nc(C)cc(-n3cc(CNC(=O)c4ccc(C(F)(F)F)cc4)nn3)c2c1 then?
0.2 µg/mL
